// provenance: the CheMixHub drug solubility set

- testDescription: xn = mol fraction of the nth substance listed, in the solute-free solvent
- appliedConditions: 308.15 K; x2 = 0.6101
solubility (g/100 g solution): recorded values
Form: value (number only, do not type unit).

## Task Entry under review: Nc1cc(-c2ccncc2)c[nH]c1=O + CCO + O . Reported solubility (g/100 g solution)?
## Result 0.0231

## Task Endpoint output: solubility (g/100 g solution) of Nc1ncc(Br)nc1Br + CCO + O . Value?
## Result 0.82

## Task // lookup solubility (g/100 g solution) for O=c1cc(CBr)c2ccccc2[nH]1 + CCO + O
## Result 0.182

## Task Sample O=C1C=CC(=O)N1c1ccccc1Br + CCO + O — what was its solubility (g/100 g solution)?
## Result 15.1

## Task What value of solubility (g/100 g solution) has been recorded for this entry: CC(C)C(=O)Nc1ccc([N+](=O)[O-])c(C(F)(F)F)c1 + CCO + O
## Result 21.5
